measuredTarget: des-Arg9-bradykinin lacks carboxy-terminal Arg9 (UniProt P01042)
Sequence (P01042 whole entry, looked up): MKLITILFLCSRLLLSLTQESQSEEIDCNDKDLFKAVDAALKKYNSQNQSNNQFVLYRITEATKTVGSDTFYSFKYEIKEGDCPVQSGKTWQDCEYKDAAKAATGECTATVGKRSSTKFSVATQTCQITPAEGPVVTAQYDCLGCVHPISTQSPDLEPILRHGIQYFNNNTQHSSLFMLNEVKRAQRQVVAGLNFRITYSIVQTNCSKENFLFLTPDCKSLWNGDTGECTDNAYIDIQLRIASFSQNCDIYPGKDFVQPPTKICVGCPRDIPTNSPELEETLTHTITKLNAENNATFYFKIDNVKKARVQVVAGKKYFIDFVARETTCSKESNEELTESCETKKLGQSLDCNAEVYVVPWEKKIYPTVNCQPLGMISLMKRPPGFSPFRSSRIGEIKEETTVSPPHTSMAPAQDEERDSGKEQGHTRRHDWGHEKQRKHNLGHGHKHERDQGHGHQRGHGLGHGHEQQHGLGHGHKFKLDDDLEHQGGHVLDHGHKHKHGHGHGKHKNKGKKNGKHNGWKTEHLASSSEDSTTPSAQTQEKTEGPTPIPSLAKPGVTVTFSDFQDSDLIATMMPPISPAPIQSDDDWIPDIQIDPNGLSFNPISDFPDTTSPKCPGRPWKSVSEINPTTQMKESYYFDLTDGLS
assayProtocol: inhibition
conditions: 5' guanosine monophosphorothioate (GMPS); inhibition of reaction of 12.1 with BrBK; about 18-fold weaker than BK
readout: Ki (µM)
Respond with the bare value in µM.

Query string: What value of Ki has been reported for the following sequence? AGGCUUCGACAAACGCUCAAAGCUGUUGGCAGCGCUGGUGAAGGGAUGGC [reactant 12.1 GMPS-RNA]
Result string: 2600
